# STUDY TARGET: human MGL from HeLa cells (Homo sapiens (Human), UniProt Q99685)
# Sequence (Q99685 whole entry): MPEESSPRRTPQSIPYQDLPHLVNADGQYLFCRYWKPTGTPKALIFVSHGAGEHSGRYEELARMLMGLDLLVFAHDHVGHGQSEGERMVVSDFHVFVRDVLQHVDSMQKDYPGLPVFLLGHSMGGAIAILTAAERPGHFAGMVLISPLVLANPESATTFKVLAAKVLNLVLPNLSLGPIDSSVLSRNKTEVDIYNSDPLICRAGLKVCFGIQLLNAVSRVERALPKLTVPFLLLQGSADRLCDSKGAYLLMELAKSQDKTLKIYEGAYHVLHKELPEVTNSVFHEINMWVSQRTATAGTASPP
# ASSAY COMMENT: MGL in vitro activity assay ([glycerol-1,3-3H]-oleoyl glycerol hydrolysis, activated carbon filtration)
# SETUP CONDITIONS: 300 nM [Glycerol-1,3-3H]-oleoyl glycerol, one hour
IC50 under 0.006 µM gets true, anything at or over 0.006 µM gets false.

* C[C@]1(O)C[C@@H](C(=O)N2CC3(CC(Cc4cccc(C5CC5)c4)C3)C2)C1 [Example 218] | false
* CC(C)c1ccccc1OC1CCC2(CC1)CN(C(=O)[C@H]1C[C@@](C)(O)C1)C2 [Example 265] | false
* C[C@]1(O)C[C@@H](C(=O)N2CC3(CC(Cc4ccc(C(F)(F)F)cc4)C3)C2)C1 [Example 195] | true
* CCn1cc(F)c2ccc(OC3CCC4(CC3)CN(C(=O)[C@H]3C[C@@](C)(O)C3)C4)nc21 [Example 475] | true
* COc1cc(C)cc(OC2CCC3(CC2)CN(C(=O)[C@H]2C[C@@](C)(O)C2)C3)c1 [Example 407] | false
* CC(C)c1ccc2ccn(CC3CC4(C3)CN(C(=O)[C@H]3C[C@@](C)(O)C3)C4)c2n1 [Example 290] | false
* C[C@]1(O)C[C@@H](C(=O)N2CC3(CC[C@@H](c4ccc(C(F)(F)F)cc4)C3)C2)C1 (stereo in doubt) [Example 56] | false

====

# STUDY TARGET: human MGL from HeLa cells (Homo sapiens (Human))
# ASSAY COMMENT: MGL in vitro activity assay ([glycerol-1,3-3H]-oleoyl glycerol hydrolysis, activated carbon filtration)
# SETUP CONDITIONS: 300 nM [Glycerol-1,3-3H]-oleoyl glycerol, one hour
pIC50: −log10 of the molar value.
This listing pairs molecules with measured pIC50.
RECORDED METRIC: pIC50

* C[C@H](c1ccccc1)[C@H]1CCC2(C1)CN(C(=O)[C@H]1C[C@@](C)(O)C1)C2 (relative stereo) | 7.32
* Cn1ncc2c(C3CCC4(C3)CN(C(=O)[C@H]3C[C@@](C)(O)C3)C4)cccc21 (mixture of isomers) | 6.73
* Cc1ccc2ccn(CC3CC4(C3)CN(C(=O)[C@H]3C[C@@](C)(O)C3)C4)c2n1 | 7.59
* C[C@]1(O)C[C@@H](C(=O)N2CC3(CCC(Cn4ccc5cccnc54)CC3)C2)C1 | 6.51
* Cc1cccc(C)c1C1CCC2(C1)CN(C(=O)[C@H]1C[C@@](C)(O)C1)C2 (mixture of isomers) | 6.53
* Cc1cc(F)cc(C2CCC3(CC2)CN(C(=O)[C@H]2C[C@@](C)(O)C2)C3)c1 | 7.66
* Cc1ccccc1C1CCC2(CC1)CN(C(=O)[C@H]1C[C@@](C)(O)C1)C2 | 7.33
* CC1(Oc2ccc(C(F)(F)F)cn2)CCC2(CC1)CN(C(=O)[C@H]1C[C@@](C)(O)C1)C2 | 7.92
* Cc1c(OC(C)C)cccc1C1CCC2(CC1)CN(C(=O)[C@H]1C[C@@](C)(O)C1)C2 | 8.82
* CC(C)(C)c1cccc([C@H]2CCC3(C2)CN(C(=O)[C@H]2C[C@@](C)(O)C2)C3)c1 (stereo in doubt) | 7.96
* Cc1c(C2CC3(C2)CN(C(=O)[C@H]2C[C@@](C)(O)C2)C3)cccc1C(F)(F)F | 6.95
* CC(C)c1cccc([C@@H]2CCC3(C2)CN(C(=O)[C@H]2C[C@@](C)(O)C2)C3C)c1 (relative stereo) | 7.32
* Cc1cc(OC(F)F)cc(C2CCC3(C2)CN(C(=O)[C@H]2C[C@@](C)(O)C2)C3)c1 (mixture of isomers) | 7.33
